- EXPERIMENT: Plasma and brain levels of BIA 10‐2474 and PF‐04457845 in mice
- Format: in vivo
- COND: mouse, plasma, po, 0.1 mg/kg
PROPERTY_LABEL: half-life
I'd appreciate it if you wrote the number followed by its unit.

# lookup: half-life of CN(C(=O)n1cnc(-c2ccc[n+]([O-])c2)c1)C1CCCCC1
2.2 h

----------
Can you tell me pIC50 for the items I'm about to list?
- MEASURED_TARGET: human recombinant fatty acid amide hydrolase (FAAH) (Homo sapiens, UniProt O00519)
- Sequence (O00519 1-579): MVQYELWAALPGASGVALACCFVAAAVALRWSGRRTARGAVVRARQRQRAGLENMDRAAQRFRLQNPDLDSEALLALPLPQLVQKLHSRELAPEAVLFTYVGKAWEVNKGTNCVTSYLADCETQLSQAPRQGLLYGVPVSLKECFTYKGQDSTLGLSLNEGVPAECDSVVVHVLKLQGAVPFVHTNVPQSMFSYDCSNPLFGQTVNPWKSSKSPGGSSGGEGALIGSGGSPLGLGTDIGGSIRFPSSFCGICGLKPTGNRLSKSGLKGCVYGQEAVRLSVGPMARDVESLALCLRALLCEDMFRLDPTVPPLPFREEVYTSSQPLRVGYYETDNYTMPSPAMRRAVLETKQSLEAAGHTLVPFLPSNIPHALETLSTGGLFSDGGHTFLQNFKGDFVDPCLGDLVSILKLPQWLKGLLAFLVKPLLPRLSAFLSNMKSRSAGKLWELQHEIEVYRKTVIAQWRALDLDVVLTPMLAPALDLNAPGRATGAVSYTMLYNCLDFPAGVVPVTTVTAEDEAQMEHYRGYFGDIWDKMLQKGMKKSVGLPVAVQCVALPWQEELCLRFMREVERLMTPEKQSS
- EXPERIMENT: FAAH activity in intact COS‐hFAAH cells
- Type: cell-based
- COND: read-out: IC50 [95% CI]; incubation 1 hr
Answers are plain numbers, as −log10 of the molar value.

Could you tell me pIC50 for each of these compounds? They are listed below.
1. O=C(Nc1cnccc1Cl)N1CCN(Cc2ccc3c(c2)OC(F)(F)O3)CC1
2. O=C(Nc1cccnn1)N1CCC(=Cc2cccc(Oc3ccc(C(F)(F)F)cn3)c2)CC1

[7.58, 8.37]
